Values were extracted from patent US20230002496A1.

- TARGET OR SYSTEM: T1, human GM-CSFRα, full length on cells (human, UniProt P15509 23-400)
- T1 sequence: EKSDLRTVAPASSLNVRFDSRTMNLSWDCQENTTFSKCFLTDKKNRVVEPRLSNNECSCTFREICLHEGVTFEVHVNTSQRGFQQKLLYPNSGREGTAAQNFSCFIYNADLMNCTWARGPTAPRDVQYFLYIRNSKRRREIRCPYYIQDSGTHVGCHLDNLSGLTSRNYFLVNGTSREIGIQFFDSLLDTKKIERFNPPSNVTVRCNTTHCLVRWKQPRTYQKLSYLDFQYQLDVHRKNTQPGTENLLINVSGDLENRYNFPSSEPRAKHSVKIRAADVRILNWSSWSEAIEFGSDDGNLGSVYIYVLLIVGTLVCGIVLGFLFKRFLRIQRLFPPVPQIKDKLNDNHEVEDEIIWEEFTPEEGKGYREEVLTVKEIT
- EXPERIMENTAL DETAILS: cell-based or functional assay
READOUT TYPE: IC50, TF-1 cell proliferation (µg/mL)
The reply should contain only the number, in µg/mL.

BINDER	RESULT
E35-scFv LY32L (scFv, V domains shown) VH: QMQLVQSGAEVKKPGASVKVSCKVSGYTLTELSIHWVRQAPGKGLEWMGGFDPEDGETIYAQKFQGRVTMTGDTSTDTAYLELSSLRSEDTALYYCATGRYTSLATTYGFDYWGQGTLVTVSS VL: EIVMTQSPATLSLSPGERATLSCRASQSVSSLLAWYQQKPGQAPRLLIYGASSRATGIPDRFSGSGSGTDFTLTISRLEPEDFAVYYCQQYDNWPYTFGQGTKLEIK	0.07

Asked: Please give the measured IC50, TF-1 cell proliferation for this binder: E35-scFv LS26K (scFv, V domains shown) VH: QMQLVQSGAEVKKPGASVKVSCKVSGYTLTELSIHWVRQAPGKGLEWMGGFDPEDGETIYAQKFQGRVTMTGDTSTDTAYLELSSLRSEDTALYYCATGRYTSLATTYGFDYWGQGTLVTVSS VL: EIVMTQSPATLSLSPGERATLSCRAKQSVSSYLAWYQQKPGQAPRLLIYGASSRATGIPDRFSGSGSGTDFTLTISRLEPEDFAVYYCQQYDNWPYTFGQGTKLEIK
Given back: 0.069
